B1: peptide HD2 (from tick evasin EVA4) / CXCL14 (biotinylated, synthetic) (parent)
chain 1: EEDDYTAYAPLTCYFT
chain 2: SKCKCSRKGPKIRYSDVKKLEMKPKYPHCEEKMVIITTKSVSRYRGQEHCLHPKLQSTKRFIKWYNAWNEKRRVYEE

Variants of: B1
Details: with CXCL14 (biotinylated, synthetic); scale: log2
Rule: enrichment below -7 gives Yes, anything at or above gives No.

Solved entries:
- VARIANT_LABEL: "chain 1 C13L"
  GROUP: "Yes"
- VARIANT_LABEL: "chain 1 Y5D"
  GROUP: "No"
- VARIANT_LABEL: "chain 1 P10R"
  GROUP: "Yes"

input: Below -7 on enrichment? Entry chain 1 Y5V
output: Yes

input: Could you do the same for chain 1 Y14D , please?
output: No

input: Could you do the same for chain 1 E1A , please?
output: No

input: Could you do the same for chain 1 D3C , please?
output: Yes

input: Could you do the same for chain 1 C13Q , please?
output: Yes

input: Could you do the same for chain 1 D3Q , please?
output: No

input: Could you do the same for chain 1 D4L , please?
output: Yes

input: Could you do the same for chain 1 E2P , please?
output: No

input: Could you do the same for chain 1 Y5E , please?
output: No

input: Could you do the same for chain 1 E1H , please?
output: No

input: Could you do the same for chain 1 Y5N , please?
output: No
